# system name: T1, human histidine-rich glycoprotein (HRG), purified from human plasma (human, UniProt P04196 19-525)
# T1 construct: also called human purified HRG; human purified HRG protein
# T1 sequence: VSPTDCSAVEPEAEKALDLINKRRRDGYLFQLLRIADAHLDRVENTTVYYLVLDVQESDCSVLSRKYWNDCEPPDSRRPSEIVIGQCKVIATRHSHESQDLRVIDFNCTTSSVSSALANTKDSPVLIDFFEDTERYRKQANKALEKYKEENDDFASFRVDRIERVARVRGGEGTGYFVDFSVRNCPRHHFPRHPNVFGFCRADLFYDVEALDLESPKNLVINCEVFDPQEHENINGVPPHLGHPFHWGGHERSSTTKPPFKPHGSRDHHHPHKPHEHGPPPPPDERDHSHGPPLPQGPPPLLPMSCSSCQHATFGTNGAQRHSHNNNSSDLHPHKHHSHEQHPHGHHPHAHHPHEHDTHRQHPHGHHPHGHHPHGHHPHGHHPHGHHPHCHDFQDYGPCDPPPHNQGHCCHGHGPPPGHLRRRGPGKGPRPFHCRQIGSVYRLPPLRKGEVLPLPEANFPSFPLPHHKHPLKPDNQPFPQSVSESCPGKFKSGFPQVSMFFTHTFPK
# experimental details: sandwich ELISA, HRG captured by solid phase 67-8A-5F
# Method: The capture antibody solution was dispensed at 25 μL per well into 384-well Maxisorp plates (NUNC), and the plates were incubated at room temperature for 3 hours. […] The results regarding the evaluation of combinations chosen from 21 types of anti-HRG monoclonal antibodies are shown in Table 1. […] The combinations of antibodies which could construct a sandwich ELISA system having enough level of absorbance change were 86 sets evaluated as ++ or +++ in Table 1.
Can you tell me absorbance at 450 nm for the items I'm about to list?

Lookup: // returns reported absorbance at 450 nm for input anti-HRG monoclonal antibody 6-12A-10B-9G (antibody, V domains shown, Mouse hybridoma monoclonal; biotin-labeled as detection antibody and for bead immobilisation) VH: EVQLQESGPGLVKPSQSLSLTCTVTGYSITSDYAWNWIRQFPGNKLEWMGYISYSGSTNYNPSLRSRISITRDTSKNQFFLQLISVTTEDTATYYCGSASYRYAWFAYWGQGTLVTVSA VL: DIQVTQTTSSLSASLGDRVTISCRASQDISNYLNWYQQKPDGTVKLLIYYTSRLHSGVPSRFSGSGSGTDYSLTISNLEQEDIATYFCQQGNTLPTFGGGTKLEIK
Found: < 1 OD

Lookup: // returns reported absorbance at 450 nm for input anti-HRG monoclonal antibody 50-6C-2A (antibody, V domains shown, Mouse hybridoma monoclonal) VH: EVQLQESGPGLVKPSQSLSLTCTVTGYSITSDYAWNWIRQFPGNKLEWMGYISYSGSTNYNPSLKSRISITRDTSKNQFFLQLNSVTTEDTATYYCASASYRYAWFAYWGQGTLVTVST VL: DIQMTQTTSSLSASLGDRVTISCRASQDISNYLNWYQQKPDGTVKLLIYYTSRLHSGVPSRFSGSGSGTDYSLTISNLEQEDIGTYFCQQGNTLPTFGGGTKLEIK
Found: < 1 OD

Lookup: // returns reported absorbance at 450 nm for input anti-HRG monoclonal antibody 69-1A (antibody, V domains shown, Mouse hybridoma monoclonal; also called clone No. 69-1A) VH: EVKLEESGGGLVQPGGSMKLSCAASGFTFSDAWMDWVRQSPEKGLEWVAEIRSKANNHGTYYAESVKGRFTISRDDSKSSVYLRMNSLSAEDTGIYYCTRPFAYWGQGTLVTVSA VL: DVVVTQTPLSLPVSLGDQASISCRSSQSLVHIDGNTYFHWYVQKPGQSPKLLIYKVSNRFSGVPDRFSGSGSGTDFTLKISRVEAEDLGVYFCSQSTHVPLTFGAGTKLELK
Found: < 1 OD

Lookup: // returns reported absorbance at 450 nm for input anti-HRG monoclonal antibody 67-8A-5F (antibody, V domains shown, Mouse hybridoma monoclonal) VH: EVQLQESGPGLVKPSQSLSLTCTVTGYSITSDYAWNWIRQFPGNKLEWMGYISYSGSTSYNPSLKSRISITRDTSKNQFFLQLNSVTTEDTATYYCASASYRYAWFAYWGQGTLVTVSA VL: DIQMTQTTSSLSASLGDRVTISCRASQDISNYLNWYQQKPDGTVKLLIYYTSRLLSGVPSRFSGSGSGTDYSLTISNLEQEDIATYFCQQGNTLPTFGGGTKLEIK
Found: < 1 OD
